- Test system: Hep-G2
- EXPERIMENTAL DETAILS: Anti-proliferation IC50, Hep-G2
- Format: cell-based
- CONDITION DESCRIPTION: Homo sapiens, HepG2; Table 1, compounds of formula I; NI = no inhibition up to 500 μM; read-out: Hep-G2 (IC50)
pIC50: −log10 of the molar value.
pIC50 listing for selected molecules.

MOLECULE: CCC1OC(=O)[C@H](C)[C@H](OC2C[C@@](C)(OC)[C@@H](O)[C@H](C)O2)[C@H](C)[C@@H](OC2O[C@H](C)C[C@H](N(C)CCCCc3ccc(-n4cc(C)ccc4=O)cc3)[C@H]2O)[C@@](C)(OC)C[C@@H](C)C(=O)[C@H](C)[C@@H](O)[C@]1(C)O (stereo partly shown) [Compound 14a]
TARGET SYSTEM: Hep-G2
RESULT QUALIFIER: =
pIC50: 4.51

MOLECULE: CCC1OC(=O)[C@H](C)[C@H](OC2C[C@@](C)(OC)[C@@H](O)[C@H](C)O2)[C@H](C)[C@@H](OC2O[C@H](C)C[C@H](N(C)Cc3ccc(-n4cc(C)ccc4=O)cc3)[C@H]2O)[C@@](C)(OC)C[C@@H](C)C(=O)[C@H](C)[C@@H](O)[C@]1(C)O (stereo partly shown) [Compound 10a]
TARGET SYSTEM: Hep-G2
RESULT QUALIFIER: <
pIC50: 3.30

MOLECULE: CC[C@H]1OC(=O)[C@@H](C)[C@@H](O)[C@@H](C)[C@@H](O[C@H]2O[C@@H](C)C[C@@H](N(C)C)[C@@H]2OC(=O)CCCC[C@H]2CCSS2)[C@](C)(OC)C[C@@H](C)C(=O)[C@H](C)[C@H](O)[C@]1(C)O
TARGET SYSTEM: Hep-G2
RESULT QUALIFIER: =
pIC50: 3.65

MOLECULE: CC[C@H]1OC(=O)[C@@H](C)[C@@H](O[C@H]2C[C@@](C)(OC)[C@@H](O)[C@H](C)O2)[C@@H](C)[C@@H](O[C@H]2O[C@@H](C)C[C@@H](N(C)C)[C@@H]2OC(=O)/C=C/C(=O)OC)[C@](C)(OC)C[C@@H](C)C(=O)[C@H](C)[C@H](O)[C@]1(C)O
TARGET SYSTEM: Hep-G2
RESULT QUALIFIER: =
pIC50: 3.88

MOLECULE: CC[C@H]1OC(=O)[C@H](C)[C@@H](O[C@H]2C[C@@](C)(OC)[C@@H](O)[C@H](C)O2)[C@H](C)[C@@H](O[C@@H]2O[C@H](C)C[C@H](N(C)C)[C@H]2O)[C@](C)(OC)C[C@@H](C)C(=O)[C@H](C)[C@@H](O)[C@]1(C)O [Clarithromycin (CLM), Clarithromycin, reference compound]
TARGET SYSTEM: Hep-G2
RESULT QUALIFIER: =
pIC50: 3.89

MOLECULE: CC[C@H]1OC(=O)[C@H](C)[C@@H](O[C@H]2C[C@@](C)(OC)[C@@H](O)[C@H](C)O2)[C@H](C)[C@@H](O[C@@H]2O[C@H](C)C[C@H](N(C)C)[C@H]2O)[C@](C)(O)C[C@@H](C)CN(C)[C@H](C)[C@@H](O)[C@]1(C)O [Azithromycin (AZM), Azithromycin, reference compound]
TARGET SYSTEM: Hep-G2
RESULT QUALIFIER: =
pIC50: 4.07

MOLECULE: CCC1OC(=O)[C@H](C)[C@H](OC2C[C@@](C)(OC)[C@@H](O)[C@H](C)O2)[C@H](C)[C@@H](OC2O[C@H](C)C[C@H](N(C)Cc3ccc(-c4cn(Cc5ccc(-n6cc(C)ccc6=O)cc5)nn4)cc3)[C@H]2O)[C@@](C)(OC)C[C@@H](C)C(=O)[C@H](C)[C@@H](O)[C@]1(C)O (stereo partly shown) [Compound 10c]
TARGET SYSTEM: Hep-G2
RESULT QUALIFIER: =
pIC50: 4.69
